nuclei count, normalised listing for selected compounds.
Assay: nuclear p53 accumulation, HPV+ cells – imaging, p53-positive nuclei imaging, 24 h, 48 h (AID 1508601)
Recorded conditions: 24/48 h, measured here: cell number at 24 h, Library stock concentration: 3.33 mM
Hit rate of the full screen: of about 5,700 compounds, about 85 (1%) were called active. What follows is part of a selection rich in actives, with near analogues and random picks from the rest.
Output spec: scalar in %, unitless text.

[
  {
    "Compound": "Cc1nc(N)sc1-c1ccnc(Nc2ccc(N3CCOCC3)cc2)n1",
    "nuclei count, normalised, %": 40.5
  },
  {
    "Compound": "CN(C)Cc1c(C(=O)NCCOc2ccc(C(=O)NO)cc2)oc2ccccc12",
    "nuclei count, normalised, %": 40
  }
]

Continue with the compound presented below.
Please look up its nuclei count, normalised: COC1=C2CC(C)CC(OC)C(O)C(C)C=C(C)C(OC(N)=O)C(OC)C=CC=C(C)C(=O)NC(=CC1=O)C2=O (stereo not drawn) 40.1
